B1: MLL5 (parent)
chain: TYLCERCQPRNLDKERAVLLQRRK

- Variants of: B1
- assay_details: protein stability index of a GFP-peptide fusion (GPS, HEK-293T) (PSI 1-6); higher = more stable;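 also: lentivirally expressed fusions sorted by FACS into six bins by GFP to DsRed ratio, PSI derived from sequencing read proportions per bin multiplied by bin number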
- experimental_setup: c terminus: a fixed tail appended
result_type: protein stability index

* TYLCERCNPRNLDKERAVLLQRRK [Q8N] | 1.55
* KYLCERCQPRNLDKERAVLLQRRK [T1K] | 2.48
* TYLCERCQPRNLDKERAFLLQRRK [V18F] | 1.96
* TYLCERCQPRNFDKERAVLLQRRK [L12F] | 2.11
